The compounds below each have a reported IC50 tested on Dihydroorotate dehydrogenase (quinone), mitochondrial (Homo sapiens); the values come from various publications.
Give just the number in nM; leave the unit off.

Look over these answered cases.
smiles.str	measurement.target	reading
Cc1ccc(Nc2cnc(-c3cccc(C(=O)NC4CC4)c3)c(C)c2)c(C(=O)O)c1	Dihydroorotate dehydrogenase (quinone), mitochondrial (Homo sapiens)	12
Cc1ccc(Nc2ccc(-c3ccccc3Cl)nc2)c(C(=O)O)c1	Dihydroorotate dehydrogenase (quinone), mitochondrial (Homo sapiens)	32

Look up IC50 with Dihydroorotate dehydrogenase (quinone), mitochondrial (Homo sapiens) for this compound: "C=C(C)c1cc(-c2ccccc2C)nc2cc(F)c(-n3nc(CO)n(CC)c3=O)cc12"
0.24

Look up IC50 with Dihydroorotate dehydrogenase (quinone), mitochondrial (Homo sapiens) for this compound: "O=C(O)c1cccnc1Nc1c(F)cc(-c2cccc(OC3CC3)c2)cc1F"
17

Look up IC50 with Dihydroorotate dehydrogenase (quinone), mitochondrial (Homo sapiens) for this compound: "CCn1c(CO)nn(-c2cc3c(C(C)C)cn(-c4ccnc(OC)c4Cl)c(=O)c3cc2F)c1=O"
4.88

Look up IC50 with Dihydroorotate dehydrogenase (quinone), mitochondrial (Homo sapiens) for this compound: "O=C(O)c1cc(C2CC2)ccc1Nc1cnc(-c2ccccc2)c(-c2ccccc2)c1"
10

Look up IC50 with Dihydroorotate dehydrogenase (quinone), mitochondrial (Homo sapiens) for this compound: "Cc1cc(C(=O)O)c2c(c1)nc(-c1c(F)c(F)c(-c3ccc(O)cc3)c(F)c1F)n2CCO"
78

Look up IC50 with Dihydroorotate dehydrogenase (quinone), mitochondrial (Homo sapiens) for this compound: "C=C(C)c1cn(-c2c(C)cnc(OC)c2C)c(=O)c2cc(F)c(-n3nc(CO)n(CC)c3=O)cc12"
2.02

Look up IC50 with Dihydroorotate dehydrogenase (quinone), mitochondrial (Homo sapiens) for this compound: "O=C(O)c1cc(C2CC2)ccc1Nc1cnc(-c2c(F)cccc2F)nc1"
14

Look up IC50 with Dihydroorotate dehydrogenase (quinone), mitochondrial (Homo sapiens) for this compound: "O=C(O)c1cccc2nc(-c3ccc(-c4c(F)cccc4F)cc3)[nH]c12"
1840

Look up IC50 with Dihydroorotate dehydrogenase (quinone), mitochondrial (Homo sapiens) for this compound: "C=C(C)c1cn(-c2ccccc2Cl)c(=O)c2ccc(-n3nc(CO)n(CC)c3=O)cc12"
0.724

Look up IC50 with Dihydroorotate dehydrogenase (quinone), mitochondrial (Homo sapiens) for this compound: "CCn1c(CO)nn(-c2cc3c(C(C)C)cn([C@@H]4CCCC[C@@H]4C)c(=O)c3cc2F)c1=O"
3.54

Look up IC50 with Dihydroorotate dehydrogenase (quinone), mitochondrial (Homo sapiens) for this compound: "CCn1c(CO)nn(-c2cc3c(C(C)C)cn(-c4ncccc4C)c(=O)c3cc2F)c1=O"
14.8

Look up IC50 with Dihydroorotate dehydrogenase (quinone), mitochondrial (Homo sapiens) for this compound: "O=C(O)c1cc(-c2ccc(-c3ccc(F)cc3)cc2)nc2ccc(Cl)cc12"
76

Look up IC50 with Dihydroorotate dehydrogenase (quinone), mitochondrial (Homo sapiens) for this compound: "Cc1cc(C(=O)O)c2nc(-c3ccc(-c4ccc(C(=O)NC5CCNCC5)cc4)cc3)[nH]c2c1"
6640

Look up IC50 with Dihydroorotate dehydrogenase (quinone), mitochondrial (Homo sapiens) for this compound: "C=C(C)c1cn(-c2cc(C)ccc2F)c(=O)c2cc(F)c(-n3nc(CO)n(CC)c3=O)cc12"
1.69

Look up IC50 with Dihydroorotate dehydrogenase (quinone), mitochondrial (Homo sapiens) for this compound: "CCOc1cccc(-c2cc(F)c(Nc3ncccc3C(=O)O)c(F)c2)c1"
19

Look up IC50 with Dihydroorotate dehydrogenase (quinone), mitochondrial (Homo sapiens) for this compound: "CCn1c(CO)nn(-c2cc3c(cc2F)C(=O)N(c2c(F)cccc2Cl)CN3[C@@H](C)C2CCCCC2)c1=O"
0.1

Look up IC50 with Dihydroorotate dehydrogenase (quinone), mitochondrial (Homo sapiens) for this compound: "CCn1c(CO)nn(-c2ccc3c(=O)n(-c4c(F)cccc4Cl)ccc3c2)c1=O"
344

Look up IC50 with Dihydroorotate dehydrogenase (quinone), mitochondrial (Homo sapiens) for this compound: "CCn1c(CO)nn(-c2cc3c(C(C)C)cc(-n4nc(C)cc4C)nc3cc2F)c1=O"
2.3

Look up IC50 with Dihydroorotate dehydrogenase (quinone), mitochondrial (Homo sapiens) for this compound: "CCn1c(CO)nn(-c2ccc3c(=O)n(-c4ccccc4Cl)nc(C(C)C)c3c2)c1=O"
3.21

Look up IC50 with Dihydroorotate dehydrogenase (quinone), mitochondrial (Homo sapiens) for this compound: "O=C(O)c1cccc2[nH]c(-c3c(F)c(F)c(-c4ccccc4F)c(F)c3F)nc12"
18
